Test system: TZM-bl cells
Type: cell-based
conditionDescription: CellTiter-Glo, peptide 1.3 µM, mean of n = 3 replicates
Field: label. Allowed values: met (viability 1.3 µM < 100) or not met (viability 1.3 µM >= 100).

[
  {
    "substance": "HHHHKIKIQINMYYYY [TM16]",
    "assayedSystem": "TZM-bl cells",
    "classification": "not met"
  },
  {
    "substance": "RGDKIKIQINM [MG8a / CN17]",
    "assayedSystem": "TZM-bl cells",
    "classification": "not met"
  },
  {
    "substance": "CSISIQI [TM141]",
    "assayedSystem": "TZM-bl cells",
    "classification": "met"
  },
  {
    "substance": "KFKFQFNMWQ [JG4]",
    "assayedSystem": "TZM-bl cells",
    "classification": "not met"
  },
  {
    "substance": "CHLHLQL [CN9]",
    "assayedSystem": "TZM-bl cells",
    "classification": "not met"
  },
  {
    "substance": "RGDKIKIQIC [MG7/CN1]",
    "assayedSystem": "TZM-bl cells",
    "classification": "not met"
  },
  {
    "substance": "QCKFKFQF [CK9]",
    "assayedSystem": "TZM-bl cells",
    "classification": "not met"
  },
  {
    "substance": "RGECKFKFQF [CN16]",
    "assayedSystem": "TZM-bl cells",
    "classification": "not met"
  },
  {
    "substance": "CQFQFQF [QBL4]",
    "assayedSystem": "TZM-bl cells",
    "classification": "not met"
  },
  {
    "substance": "KIKQIINMWQ [JG2]",
    "assayedSystem": "TZM-bl cells",
    "classification": "met"
  },
  {
    "substance": "KAKAQA [JJA2 / TM153]",
    "assayedSystem": "TZM-bl cells",
    "classification": "not met"
  },
  {
    "substance": "RGDCKIKIQINM [TM45]",
    "assayedSystem": "TZM-bl cells",
    "classification": "not met"
  },
  {
    "substance": "QCKFKQFFNMWQ [CK10]",
    "assayedSystem": "TZM-bl cells",
    "classification": "not met"
  },
  {
    "substance": "RGDSKIKIQIC [TM113 / RC11]",
    "assayedSystem": "TZM-bl cells",
    "classification": "met"
  },
  {
    "substance": "CKFKQFFNM [CK14]",
    "assayedSystem": "TZM-bl cells",
    "classification": "not met"
  },
  {
    "substance": "CKFKFQFW [TM72]",
    "assayedSystem": "TZM-bl cells",
    "classification": "met"
  },
  {
    "substance": "HIHIQIC [CN12]",
    "assayedSystem": "TZM-bl cells",
    "classification": "not met"
  },
  {
    "substance": "CKWKWQW [KB4]",
    "assayedSystem": "TZM-bl cells",
    "classification": "not met"
  },
  {
    "substance": "KIKIKIKIWW [TM21]",
    "assayedSystem": "TZM-bl cells",
    "classification": "met"
  },
  {
    "substance": "RGDCKFKFQF [TM64/ CN15]",
    "assayedSystem": "TZM-bl cells",
    "classification": "not met"
  },
  {
    "substance": "QCKIKIQINMWQ [EF-C opt]",
    "assayedSystem": "TZM-bl cells",
    "classification": "not met"
  },
  {
    "substance": "QCKAKAQANMWQ [CK22]",
    "assayedSystem": "TZM-bl cells",
    "classification": "met"
  },
  {
    "substance": "HHHHKAKAKAKAYYYY [TM10]",
    "assayedSystem": "TZM-bl cells",
    "classification": "not met"
  }
]

====

Format: physicochemical
Design: key: 1 = fibrils present; 0 non-fibrillar structures
conditionDescription: Fig S10 panel E
readoutType: Fibril

[
  {
    "substance": "QCKFKQFFNM",
    "obsValue": 1
  },
  {
    "substance": "RGDCKFKFQF",
    "obsValue": 1
  },
  {
    "substance": "HRRHFRHKITKKK",
    "obsValue": 0
  },
  {
    "substance": "HLHLPLL",
    "obsValue": 0
  },
  {
    "substance": "CKIKIQIRGD",
    "obsValue": 1
  },
  {
    "substance": "CKAKAQA",
    "obsValue": 0
  },
  {
    "substance": "KIKIQI",
    "obsValue": 0
  },
  {
    "substance": "HHHHKIKIQINMYYYY",
    "obsValue": 1
  },
  {
    "substance": "CEIEIQINM",
    "obsValue": 1
  },
  {
    "substance": "CKIKIQINMWQ",
    "obsValue": 1
  },
  {
    "substance": "CKFKQFFNMWQ",
    "obsValue": 1
  },
  {
    "substance": "KFKFQF",
    "obsValue": 0
  },
  {
    "substance": "QCKIKIQINMWQ",
    "obsValue": 1
  },
  {
    "substance": "KNERIKNERI",
    "obsValue": 0
  },
  {
    "substance": "RGDSKIKIQIC",
    "obsValue": 1
  },
  {
    "substance": "KIKIKIQI",
    "obsValue": 1
  },
  {
    "substance": "CKFKQFF",
    "obsValue": 0
  },
  {
    "substance": "CKFKFQFNM",
    "obsValue": 1
  },
  {
    "substance": "KFKFQFFF",
    "obsValue": 1
  },
  {
    "substance": "CKAKAQANM",
    "obsValue": 0
  },
  {
    "substance": "KIKQIINMWQ",
    "obsValue": 1
  }
]

====

assay: Zeta-potential measurement
Type: physicochemical
conditionDescription: category from zeta potential
readoutType: Zeta category ( +1 = if > 4 mV;-1 = if < -4 mV; 0 = -4mV to 4 mV)

[
  {
    "substance": "KAKAQANMWQ [JG3]",
    "obsValue": "-1 (-1 = if < -4 mV)"
  },
  {
    "substance": "KFKFQF [JJA6]",
    "obsValue": "-1 (-1 = if < -4 mV)"
  },
  {
    "substance": "RGDKIKIQINMWQ [MG9a]",
    "obsValue": "1 (+1 = if > 4 mV)"
  },
  {
    "substance": "RGDKIKIQIC [MG7/CN1]",
    "obsValue": "1 (+1 = if > 4 mV)"
  },
  {
    "substance": "KAKAKAQA [TG15]",
    "obsValue": "-1 (-1 = if < -4 mV)"
  },
  {
    "substance": "RGDSKIKIQIC [TM113 / RC11]",
    "obsValue": "1 (+1 = if > 4 mV)"
  },
  {
    "substance": "CKFKQFFNMWQ [CK13]",
    "obsValue": "1 (+1 = if > 4 mV)"
  },
  {
    "substance": "QCKAKAQA [CK24]",
    "obsValue": "0 (0 = -4mV to 4 mV)"
  },
  {
    "substance": "QCKFKFQFNMWQ [CK7]",
    "obsValue": "1 (+1 = if > 4 mV)"
  }
]

====

Overview of reported Zeta-Potential / mV across a group of substances:
assay: Zeta-potential measurement
Assay type: physicochemical
conditionDescription: zeta-potential of peptide; source data of Figure 2C
readoutType: Zeta-Potential / mV (mV)

[
  {
    "substance": "RGDCKFKFQF",
    "readoutType": "Zeta-Potential / mV",
    "obsValue": 16.37
  },
  {
    "substance": "KYKGAIIGNIK",
    "readoutType": "Zeta-Potential / mV",
    "obsValue": -5.205
  },
  {
    "substance": "KIKIQINM",
    "readoutType": "Zeta-Potential / mV",
    "obsValue": 10.17
  },
  {
    "substance": "QCKFKFQFNMWQ",
    "readoutType": "Zeta-Potential / mV",
    "obsValue": 16.85
  },
  {
    "substance": "NMWQKIKQII",
    "readoutType": "Zeta-Potential / mV",
    "obsValue": 2.325
  },
  {
    "substance": "KIKIKIKIYYYY",
    "readoutType": "Zeta-Potential / mV",
    "obsValue": 14.07
  },
  {
    "substance": "RGDKIRGDKI",
    "readoutType": "Zeta-Potential / mV",
    "obsValue": -7.422
  },
  {
    "substance": "KIKIQINMWA",
    "readoutType": "Zeta-Potential / mV",
    "obsValue": 16.43
  },
  {
    "substance": "CKIKIQINM",
    "readoutType": "Zeta-Potential / mV",
    "obsValue": 14.3
  },
  {
    "substance": "CRFRVPF",
    "readoutType": "Zeta-Potential / mV",
    "obsValue": 1.957
  },
  {
    "substance": "KFKFQF",
    "readoutType": "Zeta-Potential / mV",
    "obsValue": -8.745
  },
  {
    "substance": "QCKAKAQANMWQ",
    "readoutType": "Zeta-Potential / mV",
    "obsValue": -4.813
  },
  {
    "substance": "EIEIQINMWQ",
    "readoutType": "Zeta-Potential / mV",
    "obsValue": -19.93
  },
  {
    "substance": "CSISIQI",
    "readoutType": "Zeta-Potential / mV",
    "obsValue": -26.07
  },
  {
    "substance": "KIKIQINMWQ",
    "readoutType": "Zeta-Potential / mV",
    "obsValue": 15.7
  },
  {
    "substance": "CSISIQINM",
    "readoutType": "Zeta-Potential / mV",
    "obsValue": -21.18
  },
  {
    "substance": "CKFKFQFNMW",
    "readoutType": "Zeta-Potential / mV",
    "obsValue": 17.67
  },
  {
    "substance": "MKIKIQINMWQ",
    "readoutType": "Zeta-Potential / mV",
    "obsValue": 11.2
  },
  {
    "substance": "MKFKFQF",
    "readoutType": "Zeta-Potential / mV",
    "obsValue": -0.4917
  },
  {
    "substance": "KIKIQINMAQ",
    "readoutType": "Zeta-Potential / mV",
    "obsValue": 6.27
  },
  {
    "substance": "KAKAQANM",
    "readoutType": "Zeta-Potential / mV",
    "obsValue": -2.065
  }
]
